# method.description: Plasma Stability
# Type: in vitro ADME, human
# conditions: % remaining @ 1 h
Assignment: determine reported human Plasma stability for the given compounds.
// units = % remaining; emit number, no label

Input: Supply recorded human Plasma stability for CC(C)OCCn1c(=S)[nH]c(=O)c2c1ccn2COC(=O)CCCCOC(=O)[C@@H](N)C(C)C.O=C(O)C(F)(F)F [Example 335] here.
Output: 3

Input: Supply recorded human Plasma stability for CC(C)OCCn1c(=S)[nH]c(=O)c2c1ccn2COC(=O)CCCCOC(=O)[C@H](Cc1ccccc1)NC(=O)OC(C)(C)C [Example 334] here.
Output: 58

* * *

# method.description: Plasma Stability
# Assay type: in vitro ADME, human
# conditions: % remaining at 1 h; human plasma, 1 μM, 37° C.
Assignment: determine reported human Plasma stability for the given compounds.
// units = % remaining; emit number, no label

Input: Supply recorded human Plasma stability for CC(C)OCCn1c(=S)n(COC(=O)N(CC(F)(F)F)CC(F)(F)F)c(=O)c2c1ccn2COC(=O)N(CC(F)(F)F)CC(F)(F)F [Example 98] here.
Output: 99

Input: Supply recorded human Plasma stability for CC(C)OCCn1c2nc(=O)c3c1ccn3COC(=O)CCC(=O)N1CCC(CC1)C(=O)OCS2 [Example 138] here.
Output: 66

Input: Supply recorded human Plasma stability for CC(C)OCCn1c(=S)[nH]c(=O)c2c1ccn2COC(=O)OC(C)C [Example 90] here.
Output: 0

Input: Supply recorded human Plasma stability for CC(C)OCCn1c(SCOC(=O)OC(C)C)nc(=O)c2c1ccn2COC(=O)OC(C)C [Example 91] here.
Output: 1

* * *

# method.description: Plasma Stability
# Type: in vitro ADME, human
# conditions: % remaining @ 1 h
Assignment: determine reported human Plasma stability for the given molecules.
// units = %@ 1 h; emit number, no label

Input: Supply recorded human Plasma stability for CC(C)C[C@@H](NC(=O)OC(C)(C)C)C(=O)OCn1ccc2c1c(=O)[nH]c(=S)n2CCOC(C)C [Example 317] here.
Output: 99

Input: Supply recorded human Plasma stability for CC(C)OCCn1c(=S)[nH]c(=O)c2c1ccn2COC(=O)CCCCOC(=O)CNC(=O)OC(C)(C)C [Example 328] here.
Output: 11

* * *

# method.description: Stability in Simulated Intestinal Fluid (SIF)
# Format: in vitro ADME
# Design: key: % parent compound remaining relative to 0-minute sample
# conditions: bare number, unit or time not given
Parameter threshold = 30. Response is YES when SIF meets or exceeds it, else NO.

Input: Determine whether measured SIF meets or exceeds 30 for "CC(C)OCCn1c(=S)[nH]c(=O)c2c1ccn2COC(=O)CCCCOC(=O)[C@@H](N)C(C)C.O=C(O)C(F)(F)F"
Output: NO

Input: Determine whether measured SIF meets or exceeds 30 for "CC(C)OCCn1c(=S)[nH]c(=O)c2c1ccn2COC(=O)CCCCOC(=O)[C@@H](N)Cc1ccccc1.O=C(O)C(F)(F)F"
Output: YES

Input: Determine whether measured SIF meets or exceeds 30 for "CC(C)OCCn1c(=S)n(COC(=O)CCCCOC(=O)[C@H](N)C(C)C)c(=O)c2c1ccn2COC(=O)CCCCOC(=O)[C@H](N)C(C)C.O=C(O)C(F)(F)F.O=C(O)C(F)(F)F"
Output: YES

Input: Determine whether measured SIF meets or exceeds 30 for "CC(C)OCCn1c(=S)[nH]c(=O)c2c1ccn2COC(=O)CCCCOC(=O)[C@H](N)C(C)C.O=C(O)C(F)(F)F"
Output: NO

Input: Determine whether measured SIF meets or exceeds 30 for "CC(C)OCCn1c(=S)[nH]c(=O)c2c1ccn2COC(=O)CCCCOC(=O)[C@H](N)Cc1ccccc1.O=C(O)C(F)(F)F"
Output: YES

* * *

# method.description: Plasma Stability
# Format: in vitro ADME, human
# conditions: % remaining at 1 h in human plasma; the 15th table
hey, just use true (1) if measured human Plasma stability is less than 90 % @ 1 h, otherwise false (0)

Input: human Plasma stability under 90 % @ 1 h? Item: "CCCNC(=O)OCSc1nc(=O)c2c(ccn2C(=O)NCCC)n1CCOC(C)C"
Output: false (0)

Input: human Plasma stability under 90 % @ 1 h? Item: "CC(C)CNC(=O)OCSc1nc(=O)c2c(ccn2COC(=O)NCC(C)C)n1CCOC(C)C"
Output: false (0)

Input: human Plasma stability under 90 % @ 1 h? Item: "CCCNC(=O)OCSc1nc(=O)c2[nH]ccc2n1CCOC(C)C"
Output: false (0)

Input: human Plasma stability under 90 % @ 1 h? Item: "CC(C)OCCn1c(=S)[nH]c(=O)c2c1ccn2C(=O)OC(C)(C)C"
Output: true (1)

* * *

# method.description: Plasma Stability
# Assay type: in vitro ADME, human
# conditions: % remaining at 1 h; human plasma, 1 μM, 37° C.
result.type: human Plasma stability (% remaining)
// units = % remaining; emit number, no label

Input: Supply recorded human Plasma stability for "CC(C)OCCn1c(SCOC(=O)N(C)CC(F)(F)F)nc(=O)c2[nH]ccc21" here.
Output: 99

Input: Supply recorded human Plasma stability for "CC(C)OCCn1c(=S)[nH]c(=O)c2c1ccn2COC(=O)C[C@H](NC(=O)CCCCCCCCCCC(=O)O)C(=O)O" here.
Output: 97

Input: Supply recorded human Plasma stability for "CC(C)OCCn1c(SCOC(=O)N(C)c2cccc(F)c2)nc(=O)c2[nH]ccc21" here.
Output: 97

Input: Supply recorded human Plasma stability for "CC(C)OCCn1c(=S)n2c(=O)c3c1ccn3COC(=O)CCC(=O)N1CCC(CC1)C(=O)OC2" here.
Output: 10

* * *

# method.description: Caco-2 Permeability Assay
# Format: in vitro ADME, human
# conditions: human, Caco-2, pH 7.4, Caco-2 monolayer
hey, just use true if measured Papp at 90 min, 10 µM is less than 10 ×10⁻⁶ cm/s, otherwise false

Input: Papp at 90 min, 10 µM under 10 ×10⁻⁶ cm/s? Item: "CC(C)OCCn1c(=S)[nH]c(=O)c2c1ccn2COC(=O)OCCOCCNC(=O)OC(C)(C)C"
Output: false

Input: Papp at 90 min, 10 µM under 10 ×10⁻⁶ cm/s? Item: "CC(C)C[C@@H](N)C(=O)OCCCCC(=O)OCn1ccc2c1c(=O)[nH]c(=S)n2CCOC(C)C.O=C(O)C(F)(F)F"
Output: true

Input: Papp at 90 min, 10 µM under 10 ×10⁻⁶ cm/s? Item: "CC[C@H](C)[C@H](NC(=O)OC(C)(C)C)C(=O)NCCC(=O)OCn1ccc2c1c(=O)[nH]c(=S)n2CCOC(C)C"
Output: false

Input: Papp at 90 min, 10 µM under 10 ×10⁻⁶ cm/s? Item: "CC(C)OCCn1c(=S)[nH]c(=O)c2c1ccn2COC(=O)OCCOCCN.O=C(O)C(F)(F)F"
Output: true

Input: Papp at 90 min, 10 µM under 10 ×10⁻⁶ cm/s? Item: "CC(C)OCCn1c(=S)n(COC(=O)CCCOC(=O)[C@@H](Cc2ccccc2)NC(=O)OC(C)(C)C)c(=O)c2c1ccn2COC(=O)CCCOC(=O)[C@@H](Cc1ccccc1)NC(=O)OC(C)(C)C"
Output: true

Input: Papp at 90 min, 10 µM under 10 ×10⁻⁶ cm/s? Item: "CSCC[C@H](N)C(=O)OCCCCC(=O)OCn1ccc2c1c(=O)[nH]c(=S)n2CCOC(C)C.O=C(O)C(F)(F)F"
Output: true

Input: Papp at 90 min, 10 µM under 10 ×10⁻⁶ cm/s? Item: "CC(C)OCCn1c(=S)[nH]c(=O)c2c1ccn2COC(=O)Oc1cccc(F)c1"
Output: true

Input: Papp at 90 min, 10 µM under 10 ×10⁻⁶ cm/s? Item: "CC(C)OCCn1c(SCOC(=O)N(C)CCc2ccccc2)nc(=O)c2c1ccn2COC(=O)N(C)CCc1ccccc1.O=C(O)C(F)(F)F"
Output: false

Input: Papp at 90 min, 10 µM under 10 ×10⁻⁶ cm/s? Item: "CNCC(=O)NCCCCC(=O)OCn1ccc2c1c(=O)[nH]c(=S)n2CCOC(C)C.O=C(O)C(F)(F)F"
Output: true

* * *

# method.description: Caco-2 Permeability Assay
# Type: in vitro ADME, human
# conditions: human, Caco-2, pH 7.4, Caco-2 monolayer
Assignment: determine reported Papp at 90 min, 10 µM for the given molecules.
// units = ×10⁻⁶ cm/s; emit number, no label

Input: Supply recorded Papp at 90 min, 10 µM for COC(=O)N1CCCC1C(=O)NCCC(=O)OCn1ccc2c1c(=O)[nH]c(=S)n2CCOC(C)C.O=C(O)C(F)(F)F (stereo not shown) [Example 60] here.
Output: 0.611

Input: Supply recorded Papp at 90 min, 10 µM for CC(C)OCCn1c(=S)[nH]c(=O)c2c1ccn2COC(=O)CCCCNC(=O)[C@@H](NC(=O)OC(C)(C)C)[C@@H](C)O.O=C(O)C(F)(F)F [Example 35] here.
Output: 1.91

Input: Supply recorded Papp at 90 min, 10 µM for C=CCCN(C)C(=O)OCSc1nc(=O)c2[nH]ccc2n1CCOC(C)C.O=C(O)C(F)(F)F [Example 179] here.
Output: 14.5

Input: Supply recorded Papp at 90 min, 10 µM for CC(C)OCCn1c(=S)[nH]c(=O)c2c1ccn2COC(=O)CCCCNC(=O)[C@H](CCc1ccccc1)NC(=O)OC(C)(C)C.O=C(O)C(F)(F)F [Example 18] here.
Output: 7.59

Input: Supply recorded Papp at 90 min, 10 µM for CSCC[C@@H](NC(=O)OC(C)(C)C)C(=O)NCCOCCOC(=O)OCn1ccc2c1c(=O)[nH]c(=S)n2CCOC(C)C [Example 389] here.
Output: 5.94

Input: Supply recorded Papp at 90 min, 10 µM for CC(C)OCCn1c(SCOC(=O)N(C)C(C)C)nc(=O)c2c1ccn2COC(=O)N(C)C(C)C.O=C(O)C(F)(F)F [Example 171] here.
Output: 21.7

Input: Supply recorded Papp at 90 min, 10 µM for COC(=O)n1ccc2c1c(=O)[nH]c(=S)n2CCOC(C)C [Example 233] here.
Output: 0.314

Input: Supply recorded Papp at 90 min, 10 µM for CC(C)OCCn1c(SCOC(=O)N(C)C(C)C)nc(=O)c2[nH]ccc21.O=C(O)C(F)(F)F [Example 166] here.
Output: 7.08

Input: Supply recorded Papp at 90 min, 10 µM for Cc1ccccc1N(C)C(=O)OCSc1nc(=O)c2[nH]ccc2n1CCOC(C)C [Example 242] here.
Output: 15.6

Input: Supply recorded Papp at 90 min, 10 µM for CC(C)OCCn1c(=S)[nH]c(=O)c2c1ccn2COC(=O)CCNC(=O)[C@H](Cc1ccccc1)NC(=O)OCC1c2ccccc2-c2ccccc21.O=C(O)C(F)(F)F [Example 23] here.
Output: 1.94

Input: Supply recorded Papp at 90 min, 10 µM for C=CCN(C)C(=O)OCSc1nc(=O)c2[nH]ccc2n1CCOC(C)C.O=C(O)C(F)(F)F [Example 177] here.
Output: 15.2

Input: Supply recorded Papp at 90 min, 10 µM for CC(C)OCCn1c(SCOC(=O)N(C)C(C)(C)C)nc(=O)c2[nH]ccc21.O=C(O)C(F)(F)F [Example 167] here.
Output: 17.8

Input: Supply recorded Papp at 90 min, 10 µM for CC(C)OCCn1c(=S)[nH]c(=O)c2c1ccn2COC(=O)CCNC(=O)[C@@H]1CCCN1C(N)=O.O=C(O)C(F)(F)F [Example 62] here.
Output: 0.162

Input: Supply recorded Papp at 90 min, 10 µM for Cc1ccccc1N(C)C(=O)OCn1c(=O)c2c(ccn2COC(=O)N(C)c2ccccc2C)n(CCOC(C)C)c1=S [Example 244] here.
Output: 7.47

Input: Supply recorded Papp at 90 min, 10 µM for CC(C)OCCn1c(=S)[nH]c(=O)c2c1ccn2COC(=O)CCCCNC(=O)[C@H](CO)NC(=O)OC(C)(C)C.O=C(O)C(F)(F)F [Example 41] here.
Output: 1.15

Input: Supply recorded Papp at 90 min, 10 µM for CC(C)OCCn1c(SCOC(=O)N(C)C(C)(C)C)nc(=O)c2c1ccn2COC(=O)N(C)C(C)(C)C.O=C(O)C(F)(F)F [Example 168] here.
Output: 28.1

Input: Supply recorded Papp at 90 min, 10 µM for CC(C)OCCn1c(SCOC(=O)N(C)Cc2ccccc2)nc(=O)c2[nH]ccc21.O=C(O)C(F)(F)F [Example 173] here.
Output: 20.5

Input: Supply recorded Papp at 90 min, 10 µM for CCCC(=O)OCSc1nc(=O)c2c(ccn2COC(=O)CCC)n1CCOC(C)C [Example 155] here.
Output: 2.79

Recorded values, source patent US20240067651A1.
